The reported measurements were obtained from ChEMBL document CHEMBL4190346.

- System: HeLa
- Experiment notes: Cytotoxicity against human HeLa cells assessed as reduction in cell viability using compound addition to cell culture cells in log phase of growth and incubated for 48 hrs by MTT assay
- Assay type: functional, cell-based
- Condition context: Homo sapiens, HeLa, 48 h; read-out: IC50
Numbered stars: 1 amine (or outer) side, 2 acyl side, 3 side chain; on linkers, the order of the positions; unused ones are H or OH. Bridge positions count the residues as written; N and C are the ends. Square brackets hold non-standard residues; d marks the D form. Peptide text beside a SMILES is read from it. I, II: the chains in the order shown. Actinocin(1to9) = Cc1c2oc3c(C)ccc(C(=O)[*:2])c3nc-2c(C(=O)[*:1])c(N)c1=O; NMeV = CN[C@H](C(=O)O)C(C)C; Sar = CNCC(=O)O
Mark Fulfilled only for IC50 values smaller than 10 µM; exact matches and larger values are Not fulfilled.

INSERT INTO assay_data (compound, group_label) VALUES
  ('Cc1c2oc3c(C)ccc(C(=O)N[C@@H]4C(=O)N[C@H](C(C)C)C(=O)N5CCC[C@H]5C(=O)N(C)CC(=O)N(C)[C@@H](C(C)C)C(=O)O[C@@H]4C)c3nc-2c(C(=O)N[C@@H]2C(=O)N[C@H](C(C)C)C(=O)N3CCC[C@H]3C(=O)N(C)CC(=O)N(C)[C@@H](C(C)C)C(=O)O[C@@H]2C)c(N)c1=O [DACTINOMYCIN] (I: T[dV]P[Sar][NMeV] / II: T[dV]P[Sar][NMeV]; ester I:1-I:C, II:1-II:C; linker I:N-II:N via Actinocin(1to9))', 'Fulfilled'),
  ('CCCC(=O)OCC1=C(C)C[C@H]([C@@H](C)[C@H]2CC[C@H]3[C@@H]4C[C@H]5O[C@]56C(=O)C=CC(=O)[C@]6(C)[C@H]4CC[C@]23C)OC1=O', 'Fulfilled'),
  ('CC(=O)OCC1=C(C)C[C@H]([C@@H](C)[C@H]2CC[C@H]3[C@@H]4C[C@H]5O[C@]56C(=O)C=CC(=O)[C@]6(C)[C@H]4CC[C@]23C)OC1=O', 'Not fulfilled'),
  ('CC1=C(COC(=O)c2ccccc2)C(=O)O[C@@H]([C@@H](C)[C@H]2CC[C@H]3[C@@H]4C[C@H]5O[C@]56[C@@H](O)C=CC(=O)[C@]6(C)[C@H]4CC[C@]23C)C1', 'Fulfilled'),
  ('CO[C@H]1CC(=O)[C@]2(C)[C@H]3CC[C@]4(C)[C@@H]([C@H](C)[C@H]5CC(C)=C(CO)C(=O)O5)CC[C@H]4[C@@H]3C[C@H]3O[C@]32[C@H]1O', 'Not fulfilled'),
  ('CC1=C(CO)C(=O)O[C@@H]([C@@H](C)[C@H]2CC[C@H]3[C@@H]4C[C@H]5O[C@]56[C@@H](O)CCC(=O)[C@]6(C)[C@H]4CC[C@]23C)C1', 'Not fulfilled'),
  ('CC1=C(COC(=O)c2ccccc2)C(=O)O[C@@H]([C@@H](C)[C@H]2CC[C@H]3[C@@H]4C[C@H]5O[C@]56C(=O)C=CC(=O)[C@]6(C)[C@H]4CC[C@]23C)C1', 'Fulfilled'),
  ('CC(=O)OCC1=C(C)C[C@H]([C@@H](C)[C@H]2CC[C@H]3[C@@H]4C[C@H](Cl)[C@]5(O)[C@@H](O)C=CC(=O)[C@]5(C)[C@H]4CC[C@]23C)OC1=O', 'Not fulfilled');
